I'd appreciate it if you could supply polymerase ribozyme fitness (log ratio) values for the items below.
B1: TPR 5TU (parent)
chain: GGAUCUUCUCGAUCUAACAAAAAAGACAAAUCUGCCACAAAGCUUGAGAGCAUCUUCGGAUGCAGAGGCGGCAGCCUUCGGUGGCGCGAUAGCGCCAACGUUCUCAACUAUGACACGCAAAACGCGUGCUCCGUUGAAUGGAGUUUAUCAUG

variants of: B1; test: polymerase ribozyme fitness, log enrichment relative to wild type (log ratio); higher = more active; in vitro selection for triplet polymerase activity
Fewer inactive variants are shown than the library holds.

# polymerase ribozyme fitness (log ratio) of C51A C96A = -1.26

# polymerase ribozyme fitness (log ratio) of G50U U146C = 0.0837

# polymerase ribozyme fitness (log ratio) of G58A G80U G84A G88A = ≤ -4.2

# polymerase ribozyme fitness (log ratio) of U4A G59A = -1.06

# polymerase ribozyme fitness (log ratio) of C38U A121C G136C A138U U148G = ≤ -4.2

# polymerase ribozyme fitness (log ratio) of U13A C38U = -0.321

# polymerase ribozyme fitness (log ratio) of C75U G88A A119U = ≤ -4.2

# polymerase ribozyme fitness (log ratio) of G50A U55A C87G C103U C116G = ≤ -4.2

# polymerase ribozyme fitness (log ratio) of C57A U82G G84U C95A = -0.701

# polymerase ribozyme fitness (log ratio) of A39G G88C A91U G136U = ≤ -4.2

# polymerase ribozyme fitness (log ratio) of A3G C10A A12G G59U A66G C72G C85U = ≤ -4.2
